Biological target: 5-HT2A (Homo sapiens, UniProt P28223)
Sequence (P28223 whole entry): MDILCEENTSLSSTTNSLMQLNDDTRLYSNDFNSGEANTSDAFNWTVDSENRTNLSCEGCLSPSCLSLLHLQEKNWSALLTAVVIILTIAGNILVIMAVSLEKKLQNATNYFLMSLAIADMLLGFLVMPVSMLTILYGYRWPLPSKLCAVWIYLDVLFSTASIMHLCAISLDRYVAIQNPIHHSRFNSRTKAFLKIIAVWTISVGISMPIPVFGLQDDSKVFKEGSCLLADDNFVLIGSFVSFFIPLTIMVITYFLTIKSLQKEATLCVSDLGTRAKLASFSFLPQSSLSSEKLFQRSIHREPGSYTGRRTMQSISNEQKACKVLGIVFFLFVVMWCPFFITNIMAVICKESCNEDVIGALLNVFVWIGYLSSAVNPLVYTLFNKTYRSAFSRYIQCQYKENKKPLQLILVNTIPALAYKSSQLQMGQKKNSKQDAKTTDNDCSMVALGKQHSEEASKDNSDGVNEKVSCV
Test: Functional assay at 5-HT2A, relative to 5-HT
Format: cell-based
Parameters: expressed in transfected cells; host or cells: HEK293, transient
Details: mean (SEM)
pEC50: −log10 of the molar value.
measurement.type: pEC50

| molecule | measured |
| --- | --- |
| CN(C)C1CCc2c(cccc2-c2ccccc2F)C1 (single isomer, unassigned; (+)) [(+)-5-FPT] | 5.45 |

###

Target or system 5-HT2C (Homo sapiens): recorded Ki listed per item.

| compound | Ki |
| --- | --- |
| COc1ccc2c(c1)[C@@H](c1cccc(Cl)c1)C[C@H](N(C)C)C2 (single isomer, unassigned) [Compound 7k] | 280 nM |
| COc1cc2c(cc1Cl)CC(N(C)C)CC2c1cccc(Cl)c1 (single isomer, unassigned) | 9 nM |
| CN(C)[C@@H]1Cc2cc(Cl)c(O)cc2[C@@H](c2ccccc2)C1 (single isomer, unassigned) [Compound 7m] | 1000 nM |
| COc1ccc2c(c1)[C@@H](c1cccc(Cl)c1)C[C@H](N(C)C)C2 (single isomer, unassigned) [Compound 7l] | 17 nM |
| COc1cc2c(cc1Cl)C[C@@H](N(C)C)C[C@@H]2c1ccccc1 (single isomer, unassigned) | 24 nM |
| COc1cc2c(cc1Cl)C[C@@H](N(C)C)C[C@@H]2c1cccc(Br)c1 (single isomer, unassigned) [Compound 7j] | 130 nM |
| COc1cc2c(cc1Cl)C[C@@H](N(C)C)C[C@H]2c1ccccc1 (single isomer, unassigned) [Compound 7c] | 1600 nM |

###

Target: H1 (Homo sapiens)
Sequence (P35367 whole entry): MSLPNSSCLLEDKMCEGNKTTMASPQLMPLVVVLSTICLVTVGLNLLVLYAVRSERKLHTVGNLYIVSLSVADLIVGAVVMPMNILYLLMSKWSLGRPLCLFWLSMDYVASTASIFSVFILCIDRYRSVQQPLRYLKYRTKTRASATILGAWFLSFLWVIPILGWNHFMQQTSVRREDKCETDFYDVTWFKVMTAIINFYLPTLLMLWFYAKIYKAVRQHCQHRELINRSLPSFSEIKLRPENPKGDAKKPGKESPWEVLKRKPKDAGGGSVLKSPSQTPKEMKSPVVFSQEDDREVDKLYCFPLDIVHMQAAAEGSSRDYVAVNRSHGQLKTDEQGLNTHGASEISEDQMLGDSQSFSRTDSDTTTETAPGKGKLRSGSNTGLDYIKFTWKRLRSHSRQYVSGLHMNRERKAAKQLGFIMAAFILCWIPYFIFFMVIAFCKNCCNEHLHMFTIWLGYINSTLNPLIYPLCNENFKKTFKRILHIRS
We label by threshold. Values of Ki strictly beneath 3 nM are Satisfied. Values of 3 nM and up are Not satisfied.

| compound | category.label |
| --- | --- |
| COc1cc2c(cc1Cl)C[C@@H](N(C)C)C[C@@H]2c1cccc(Br)c1 (single isomer, unassigned) [Compound 7j] | Not satisfied |
| COc1ccc2c(c1)[C@@H](c1cccc(Cl)c1)C[C@H](N(C)C)C2 (single isomer, unassigned) [Compound 7l] | Not satisfied |
| COc1cc2c(cc1Cl)C[C@@H](N(C)C)C[C@H]2c1ccccc1 (single isomer, unassigned) [Compound 7d] | Not satisfied |
| COc1cc2c(cc1Cl)C[C@@H](N(C)C)C[C@@H]2c1ccccc1 (single isomer, unassigned) | Satisfied |
| COc1cc2c(cc1Cl)C[C@@H](N(C)C)C[C@H]2c1ccccc1 (single isomer, unassigned) [Compound 7c] | Not satisfied |

###

Readings of pKi for the listed molecules
Molecular target: human 5-HT7 receptors (5-HT7a) (Homo sapiens, UniProt P34969)
Construct: expressed in transfected cells
Sequence (P34969 1-445 isoform P34969-2): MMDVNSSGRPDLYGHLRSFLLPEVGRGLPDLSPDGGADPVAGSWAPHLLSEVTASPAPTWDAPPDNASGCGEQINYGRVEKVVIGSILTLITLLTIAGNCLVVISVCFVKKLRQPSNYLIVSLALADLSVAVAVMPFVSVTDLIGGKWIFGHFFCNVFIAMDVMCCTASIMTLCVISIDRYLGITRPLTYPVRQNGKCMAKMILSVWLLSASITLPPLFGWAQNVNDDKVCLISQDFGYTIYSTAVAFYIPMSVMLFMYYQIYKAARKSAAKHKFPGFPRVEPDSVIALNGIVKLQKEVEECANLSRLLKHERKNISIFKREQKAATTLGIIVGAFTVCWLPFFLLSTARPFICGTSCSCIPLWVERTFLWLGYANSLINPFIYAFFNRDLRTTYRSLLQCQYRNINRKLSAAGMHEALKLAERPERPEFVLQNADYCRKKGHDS
Assay: Radioligand competition binding ([3H]5-CT), HEK293 cells stably expressing human 5-HT7 receptors
Conditions: human 5-HT7a; mean (SEM), at least three independent experiments; read-out: Affinity Ki 5-HT7
pKi: −log10 of the molar value.

| molecule | pKi |
| --- | --- |
| CN(C)C1CCc2c(cccc2-c2ccccc2F)C1 (single isomer, unassigned; (-)) [(−)-5-FPT] | 6.34 |
| CN(C)C1CCc2c(cccc2-c2ccccc2F)C1 (single isomer, unassigned; (+)) [(+)-5-FPT] | 8.24 |

###

Biological target: 5-HT2C receptors (5-HT2C-INI) (Homo sapiens)
Construct: expressed in transfected cells; host or cells: HEK293, transient
Experiment: Binding affinity, HEK293 cells transiently over-expressing human 5-HT2C
Settings: human 5-HT2C-INI; mean (SEM)

| compound | Ki |
| --- | --- |
| CN(C)C1CCc2c(cccc2-c2ccccc2F)C1 (single isomer, unassigned; (+)) [(+)-5-FPT] | 269 nM |

###

Biological target: 5-HT2C (Homo sapiens)
Sequence (P28335 33-458): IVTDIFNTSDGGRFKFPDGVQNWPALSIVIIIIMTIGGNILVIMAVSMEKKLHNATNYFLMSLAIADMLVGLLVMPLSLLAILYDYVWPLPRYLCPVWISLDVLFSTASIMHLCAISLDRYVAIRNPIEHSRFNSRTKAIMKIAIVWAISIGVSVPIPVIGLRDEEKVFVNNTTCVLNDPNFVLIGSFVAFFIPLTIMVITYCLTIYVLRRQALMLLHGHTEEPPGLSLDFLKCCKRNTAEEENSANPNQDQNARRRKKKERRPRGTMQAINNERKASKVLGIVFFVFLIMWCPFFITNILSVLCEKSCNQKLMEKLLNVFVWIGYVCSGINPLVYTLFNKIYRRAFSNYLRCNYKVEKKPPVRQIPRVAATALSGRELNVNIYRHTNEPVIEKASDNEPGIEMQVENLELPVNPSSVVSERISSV
Assay: Receptor-mediated inositol phosphate hydrolysis, transfected HEK293 cells
Format: cell-based
Set-up: expressed in transfected cells; host or cells: HEK293, transient
Conditions: read-out: Function 5-HT2C, EC50 (agonist potency)
pEC50: −log10 of the molar value.
measurement.type: pEC50

| compound | system.name | measured |
| --- | --- | --- |
| COc1ccc2c(c1)[C@@H](c1cccc(Cl)c1)C[C@H](N(C)C)C2 (single isomer, unassigned) [Compound 7l] | 5-HT2C (Homo sapiens) | 7.72 |

###

Molecular target: mouse 5-HT2A receptor (Mus musculus)
Sequence (P35363 whole entry): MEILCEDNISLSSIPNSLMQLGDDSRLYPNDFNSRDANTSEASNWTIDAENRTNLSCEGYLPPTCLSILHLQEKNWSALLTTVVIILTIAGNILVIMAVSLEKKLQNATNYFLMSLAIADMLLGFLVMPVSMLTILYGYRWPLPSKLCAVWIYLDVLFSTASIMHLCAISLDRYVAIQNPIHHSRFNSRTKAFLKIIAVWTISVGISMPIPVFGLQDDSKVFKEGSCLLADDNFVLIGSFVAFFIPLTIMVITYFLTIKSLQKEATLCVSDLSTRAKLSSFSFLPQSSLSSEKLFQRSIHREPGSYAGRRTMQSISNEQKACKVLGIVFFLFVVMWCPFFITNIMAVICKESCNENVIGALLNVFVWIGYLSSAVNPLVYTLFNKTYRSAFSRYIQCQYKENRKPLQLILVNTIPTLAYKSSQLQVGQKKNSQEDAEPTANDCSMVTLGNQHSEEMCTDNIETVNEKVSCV
pKi: −log10 of the molar value.
Readings of pKi for the listed compounds
measurement.type: pKi

| compound | measured |
| --- | --- |
| CN(C)C1CCc2c(cccc2-c2ccccc2F)C1 (single isomer, unassigned; (+)) [(+)-5-FPT] | 6.20 |
| CN(C)C1CCc2c(cccc2-c2ccccc2F)C1 (single isomer, unassigned; (-)) [(−)-5-FPT] | 6.83 |

###

Biological target: 5-HT2C (Homo sapiens)
Assay: Functional assay at 5-HT2C, relative to 5-HT
Format: cell-based
Parameters: expressed in transfected cells; host or cells: HEK293, transient
Settings: mean (SEM)
pEC50: −log10 of the molar value.

| compound | system.name | pEC50 |
| --- | --- | --- |
| CN(C)C1CCc2c(cccc2-c2ccccc2F)C1 (single isomer, unassigned; (+)) [(+)-5-FPT] | 5-HT2C (Homo sapiens) | 6.64 |

###

pKi: −log10 of the molar value.
Target or system H1 (Homo sapiens): recorded pKi listed per item.

| compound | system.name | pKi |
| --- | --- | --- |
| COc1ccc2c(c1)[C@@H](c1cccc(Cl)c1)C[C@H](N(C)C)C2 (single isomer, unassigned) [Compound 7k] | H1 (Homo sapiens) | 6.13 |
| CN(C)[C@@H]1Cc2cc(Cl)c(O)cc2[C@@H](c2ccccc2)C1 (single isomer, unassigned) [Compound 7m] | H1 (Homo sapiens) | 6.96 |
| COc1cc2c(cc1Cl)C[C@@H](N(C)C)C[C@@H]2c1cccc(Br)c1 (single isomer, unassigned) [Compound 7i] | H1 (Homo sapiens) | 6.19 |
| COc1cc2c(cc1Cl)CC(N(C)C)CC2c1cccc(Cl)c1 (single isomer, unassigned) | H1 (Homo sapiens) | 7.72 |

###

Biological target: dopamine D2 receptor (Homo sapiens)
Sequence (P14416 whole entry): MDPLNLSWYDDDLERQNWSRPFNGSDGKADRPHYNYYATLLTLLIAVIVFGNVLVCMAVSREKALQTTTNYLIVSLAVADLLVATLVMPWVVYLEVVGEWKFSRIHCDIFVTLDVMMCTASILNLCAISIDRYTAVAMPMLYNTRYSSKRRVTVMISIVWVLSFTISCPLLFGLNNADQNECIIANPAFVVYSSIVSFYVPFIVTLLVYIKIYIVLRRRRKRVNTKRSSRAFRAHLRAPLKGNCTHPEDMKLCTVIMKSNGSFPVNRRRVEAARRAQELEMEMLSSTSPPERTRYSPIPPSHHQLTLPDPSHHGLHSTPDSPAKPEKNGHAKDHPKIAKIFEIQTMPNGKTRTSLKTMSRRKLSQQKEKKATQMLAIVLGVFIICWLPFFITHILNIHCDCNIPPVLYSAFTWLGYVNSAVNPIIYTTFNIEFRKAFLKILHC
Assay: Off-target binding affinity, dopamine D2
Readings of Ki for the listed compounds

| compound | Ki |
| --- | --- |
| CN(C)C1CCc2c(cccc2-c2ccccc2F)C1 (single isomer, unassigned; (-)) [(−)-5-FPT] | > 1000 nM |
| CN(C)C1CCc2c(cccc2-c2ccccc2F)C1 (single isomer, unassigned; (+)) [(+)-5-FPT] | > 1000 nM |

###

Target: 5-HT2A (Homo sapiens, UniProt P28223)
Test: Radioreceptor competitive binding, [3H]ketanserin (4-PAT series)
Conditions: 2.0 nM [3H]ketanserin; HCl salts; read-out: Affinity (Ki ± SEM) 5-HT2A
pKi: −log10 of the molar value.
measurement.type: pKi

| compound | system.name | measured |
| --- | --- | --- |
| COc1cc2c(cc1Cl)C[C@@H](N(C)C)C[C@H]2c1ccccc1 (single isomer, unassigned) [Compound 7d] | 5-HT2A (Homo sapiens, UniProt P28223) | 6.49 |
| CN(C)[C@@H]1Cc2cc(Cl)c(O)cc2[C@@H](c2ccccc2)C1 (single isomer, unassigned) [Compound 7n] | 5-HT2A (Homo sapiens, UniProt P28223) | 7.22 |
| COc1ccc2c(c1)[C@@H](c1cccc(Cl)c1)C[C@H](N(C)C)C2 (single isomer, unassigned) [Compound 7k] | 5-HT2A (Homo sapiens, UniProt P28223) | 6.46 |

###

Molecular target: 5-HT2C (Homo sapiens)
Test: Radioreceptor competitive binding, [3H]mesulergine (4-PAT series)
Conditions: read-out: Affinity (Ki ± SEM) 5-HT2C
measurement.type: Ki

| compound | measurement.type | measured |
| --- | --- | --- |
| CN(C)[C@@H]1Cc2cc(Cl)c(O)cc2[C@@H](c2ccccc2)C1 (single isomer, unassigned) [Compound 7n] | Ki | 23 nM |
| COc1cc2c(cc1Cl)C[C@@H](N(C)C)C[C@H]2c1ccccc1 (single isomer, unassigned) [Compound 7d] | Ki | 96 nM |
| COc1cc2c(cc1Cl)C[C@@H](N(C)C)C[C@@H]2c1cccc(Br)c1 (single isomer, unassigned) [Compound 7i] | Ki | 350 nM |

Data origin, for the record: patent US11021435B2
